Tested on: Ascaris suum
assayExplanation: Inhibition of Ascaris suum T6PP assessed as Vmax for substrate using T6P as substrate by Lineweaver-Burk plot analysis
Entries and their Vmax values follow.
endpointName: Vmax

structureassmiles=CCCCCCCCc1ccc(O[C@H]2O[C@H](COS(=O)(=O)O)[C@@H](O)[C@H](O)[C@H]2O)cc1 studysystem="Ascaris suum" endpointname=Vmax measurement="0.48 µM/s"
structureassmiles=O=S(=O)(O)OC[C@H]1O[C@@H](Oc2ccc(-c3ccccc3)cc2)[C@H](O)[C@@H](O)[C@@H]1O studysystem="Ascaris suum" endpointname=Vmax measurement="0.436 µM/s"
structureassmiles=CCCCCCCCc1ccc(O[C@@H]2O[C@H](COS(=O)(=O)O)[C@@H](O)[C@H](O)[C@H]2O)cc1 studysystem="Ascaris suum" endpointname=Vmax measurement="0.343 µM/s"
structureassmiles=CCCCCCc1ccc(O[C@H]2O[C@H](COS(=O)(=O)O)[C@@H](O)[C@H](O)[C@H]2O)cc1 studysystem="Ascaris suum" endpointname=Vmax measurement="0.631 µM/s"

---

Recorded Ratio values for a group of compounds are listed next.
Tested on: Salmonella enterica subsp. enterica serovar Typhimurium
assayExplanation: Inhibition of Salmonella typhimurium T6PP using T6P as substrate assessed as fraction of enzyme unbound with compound by measuring ratio of initial velocities of T6P substrate hydrolysis in presence and absence of compound at 1 mM after 5 mins by BioMol green dye based HTS assay
endpointName: Ratio

compound="OC[C@H]1O[C@H](O[C@H]2O[C@H](CO)[C@@H](O)[C@H](O)[C@H]2O)[C@H](O)[C@@H](O)[C@@H]1O [TREHALOSE]" studysystem="Salmonella enterica subsp. enterica serovar Typhimurium" measurement=0.88
compound=OC[C@H]1O[C@@H](Oc2ccccc2)[C@H](O)[C@@H](O)[C@@H]1O studysystem="Salmonella enterica subsp. enterica serovar Typhimurium" measurement=0.87
compound=O=S(=O)(O)OC[C@H]1O[C@H](O[C@H]2O[C@H](CO)[C@@H](O)[C@H](O)[C@H]2O)[C@H](O)[C@@H](O)[C@@H]1O studysystem="Salmonella enterica subsp. enterica serovar Typhimurium" measurement=0.01
compound=O=[N+]([O-])c1ccc(O[C@@H]2O[C@H](COS(=O)(=O)O)[C@@H](O)[C@H](O)[C@H]2O)cc1 studysystem="Salmonella enterica subsp. enterica serovar Typhimurium" measurement=0.68
compound=CCCCCCCCO[C@@H]1O[C@H](COS(=O)(=O)O)[C@@H](O)[C@H](O)[C@H]1O studysystem="Salmonella enterica subsp. enterica serovar Typhimurium" measurement=0.54
compound=O=S(=O)(O)OCc1cccc(O[C@@H]2O[C@H](CO)[C@@H](O)[C@H](O)[C@H]2O)c1 studysystem="Salmonella enterica subsp. enterica serovar Typhimurium" measurement=0.85
compound=O=S(=O)(O)OC[C@H]1O[C@@H](Oc2cccc3ccccc23)[C@H](O)[C@@H](O)[C@@H]1O studysystem="Salmonella enterica subsp. enterica serovar Typhimurium" measurement=0.8
compound=O=Cc1ccccc1O[C@@H]1O[C@H](COS(=O)(=O)O)[C@@H](O)[C@H](O)[C@H]1O studysystem="Salmonella enterica subsp. enterica serovar Typhimurium" measurement=0.85
compound=O=S(=O)(O)OC[C@H]1O[C@@H](Oc2ccc(CO)cc2)[C@H](O)[C@@H](O)[C@@H]1O studysystem="Salmonella enterica subsp. enterica serovar Typhimurium" measurement=0.79

---

System: Ascaris suum
assayExplanation: Inhibition of Ascaris suum T6PP using T6P as substrate assessed as fraction of enzyme unbound with compound by measuring ratio of initial velocities of T6P substrate hydrolysis in presence and absence of compound at 1 mM after 5 mins by BioMol green dye based HTS assay
endpointName: Ratio

structureassmiles=O=S(=O)(O)OC[C@H]1O[C@@H](n2cc(-c3ccccc3)nn2)[C@H](O)[C@@H](O)[C@@H]1O measurement=0.76
structureassmiles=OC[C@H]1O[C@@H](Nc2ccccc2)[C@H](O)[C@@H](O)[C@@H]1O measurement=0.97
structureassmiles=CO[C@H]1O[C@H](COS(=O)(=O)O)[C@@H](O)[C@H](O)[C@H]1OCc1ccccc1 measurement=0.96
structureassmiles=O=S(=O)(O)OC[C@H]1O[C@H](O[C@H]2O[C@H](CO)[C@@H](O)[C@H](O)[C@H]2O)[C@H](O)[C@@H](O)[C@@H]1O measurement=0.21
structureassmiles=COc1cc(C=O)cc(OC)c1O[C@@H]1O[C@H](COS(=O)(=O)O)[C@@H](O)[C@H](O)[C@H]1O measurement=0.94
structureassmiles=O=P(O)(O)OC[C@H]1O[C@@H](Oc2ccccc2)[C@H](O)[C@@H](O)[C@@H]1O measurement=0.98
structureassmiles=O=Cc1ccc(O[C@@H]2O[C@H](COS(=O)(=O)O)[C@@H](O)[C@H](O)[C@H]2O)cc1 measurement=0.81
structureassmiles=O=S(=O)(O)OC[C@H]1O[C@@H](Oc2ccccc2CO)[C@H](O)[C@@H](O)[C@@H]1O measurement=0.9
structureassmiles=CO[C@H]1O[C@H](COS(=O)(=O)O)[C@@H](O)[C@H](OCc2ccccc2)[C@H]1O measurement=1.04
structureassmiles=O=S(=O)(O)OC[C@H]1O[C@@H](Oc2ccc(-c3ccccc3)cc2)[C@H](O)[C@@H](O)[C@@H]1O measurement=0.9
structureassmiles=O=S(=O)(O)OCc1cccc(O[C@@H]2O[C@H](CO)[C@@H](O)[C@H](O)[C@H]2O)c1 measurement=0.98
structureassmiles=NS(=O)(=O)OCc1cccc(N[C@@H]2O[C@H](CO)[C@@H](O)[C@H](O)[C@H]2O)c1 measurement=0.96
structureassmiles=O=[N+]([O-])c1ccc(O[C@@H]2O[C@H](COS(=O)(=O)O)[C@@H](O)[C@H](O)[C@H]2O)cc1 measurement=0.83
structureassmiles=CCCCCCCCc1ccc(O[C@@H]2O[C@H](COS(=O)(=O)O)[C@@H](O)[C@H](O)[C@H]2O)cc1 measurement=0.02
structureassmiles=CC(=O)Nc1ccc(O[C@@H]2O[C@H](COS(=O)(=O)O)[C@@H](O)[C@H](O)[C@H]2O)cc1 measurement=0.9
structureassmiles=OC[C@H]1O[C@H](O[C@H]2O[C@H](CO)[C@@H](O)[C@H](O)[C@H]2O)[C@H](O)[C@@H](O)[C@@H]1O measurement=0.97
structureassmiles=OC[C@H]1O[C@@H](Oc2ccccc2)[C@H](O)[C@@H](O)[C@@H]1O measurement=1
structureassmiles=CO[C@H]1O[C@H](COS(=O)(=O)O)[C@@H](OCc2ccccc2)[C@H](O)[C@H]1O measurement=0.99
structureassmiles=O=S(=O)(O)OC[C@H]1O[C@@H](Oc2ccccc2)[C@H](O)[C@@H](O)[C@@H]1O measurement=0.92
structureassmiles=O=Cc1cccc(O[C@@H]2O[C@H](COS(=O)(=O)O)[C@@H](O)[C@H](O)[C@H]2O)c1 measurement=0.78
structureassmiles=OC[C@H]1O[C@H](Oc2ccccc2)[C@H](O)[C@@H](O)[C@@H]1O measurement=0.97
structureassmiles=O=S(=O)(O)OC[C@H]1O[C@H](Oc2ccccc2)[C@H](O)[C@@H](O)[C@@H]1O measurement=0.71
structureassmiles=CO[C@H]1O[C@H](COS(=O)(=O)O)[C@@H](O)[C@H](O)[C@H]1O measurement=1.07
